# assay.text: Pharmacokinetics in Yucatan mini-pigs, single subcutaneous or intravenous dose
# Assay type: in vivo
# applied.conditions: male, Yucatan mini-pig, minipig, plasma, sc, 19 nmol/kg, single subcutaneous dose 19 nmol/kg, individual animal, read-out: Tmax
*1 amine or outer side, *2 acyl side, *3 side chain or, on linkers, in order; H or OH if unused. Side-chain parts run from the residue outwards. [ ]: non-standard residue; d: D form. The star is where a group is joined. C20 diacid = O=C(O)CCCCCCCCCCCCCCCCCCC(=O)*; γGlu = O=C(O)[C@H](CCC(=O)[*:2])N[*:1]; εLys = N[C@@H](CCCCN[*:1])C(=O)[*:2]; αMeL = CC(C)C[C@](C)(N)C(=O)O; AEEA = NCCOCCOCC(=O)O; Aib = CC(C)(N)C(=O)O
reported.property: Tmax (h)

1. {C20 diacid-εLys-AEEA-γGlu}-GSPSIVTS[αMeL]DVPT[Aib][αMeL]LQKILEQERAEKARQQATEAAEILAQV-NH2 [SEQ ID NO: 25]
2. Ac-GSPSIVTS[αMeL]DVPT[Aib][αMeL]LQKILEQERAEKARQQAK([γGlu-AEEA-εLys-C20 diacid])EAAEILAQV-NH2 [SEQ ID NO: 1]
Q. Compare reported Tmax values for 1 and 2 . Which is lower? Label of pick, please.
A. 2
(2: 6 h, 1: 24 h)
